experiment: Plasma pharmacokinetics, LC/MS/MS, non-compartmental analysis; assay type: in vivo, human; details: human, plasma, po, 32 mg, AUClast, 32 mg (QD), single dose; mean, n=4; AUClast = AUC0-72h

{"columns": ["STRUCTURE NOTATION", "AUC(0-t)"],
 "data": [
  ["CS(=O)(=O)N1CCc2c(-c3cnc(N)nc3)nc(N3CCOCC3)nc21", "859 ng·h/mL"]
]}

====

experiment: Plasma pharmacokinetics, LC/MS/MS, non-compartmental analysis; assay type: in vivo, human; details: human, plasma, po, 48 mg, Cmax, 48 mg (BID) = MTD, repeat dose (steady state); mean, n=5

{"columns": ["STRUCTURE NOTATION", "Cmax"],
 "data": [
  ["CS(=O)(=O)N1CCc2c(-c3cnc(N)nc3)nc(N3CCOCC3)nc21", "175 ng/mL"]
]}
